Experiment: MM1S cell viability effects, profiling panel, calcein-AM fluorescence, 48 h, basal (AID 1165);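 note: viability of MM1S multiple myeloma cells under basal unstimulated conditions; test concentration not given here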
Details: higher = more signal
Each record here notes measured z-score.
recordedEndpoint: z-score

compound	recordedEndpoint	endpointResult
COc1ccc(C#Cc2ccc3c(c2)[C@]2(C(=O)N3)[C@H](c3ccc(O)cc3)N3[C@H](c4ccccc4)[C@H](c4ccccc4)OC(=O)[C@H]3[C@@H]2C(N)=O)cc1	z-score	-3.41
[N-]=[N+]=Nc1ccccc1[C@H]1OC(c2ccc(OCCCO)cc2)=N[C@@]1(Cc1ccccc1)C(N)=O	z-score	-3.09
CN1C=C(C(=O)OCCS(C)(=O)=O)C(C(=O)OCCS(C)(=O)=O)=CC(CCCO)=CC1c1cccs1 (centres undefined)	z-score	0.175
C=CCC1(CC=C)C[C@H]2CO[C@H](c3ccc(OC)cc3)N2C1=O	z-score	0.347

* * *

Assay: small-molecule microarray binders of probe aDKK1, primary screen, biochemical, biotinylated probe, 635/667 nm fluorescence (AID 1099);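 note: score merges 667nm spot fluorescence with signal to noise across triplicate slides; reference of the scale not given here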
Settings: higher = more signal
Each record here notes measured composite z-score.
recordedEndpoint: composite z-score

smiles	endpointResult
C=CC[C@]1(C(=O)N(C)C)N=C(c2ccc(OCCCO)cc2)O[C@H]1c1ccccc1CN=[N+]=[N-]	1.68
CCOC(=O)C[C@H]1[C@H](OC(=O)c2ccc(-c3ccccc3)cc2)[C@@H](NC(=O)C2CCCCC2)c2cc(OCCCO)ccc2N1C(=O)c1ccc2ccccc2n1	0.414
C=CCN1C(=O)[C@@]2(O[C@@H](CCn3cc(CCO)nn3)[C@H]([Si](C)(C)c3ccc(OC)cc3)[C@H]2C)c2cc(N3C(=O)c4cccc5cccc3c45)ccc21	0.13
C=C(C(=O)CC[C@H](OC(C)=O)c1ccc(CO)o1)C(C)C	-0.272

* * *

Molecular target: Dickkopf-related protein 1 (Homo sapiens) (UniProt O94907)
Sequence (O94907 whole entry, looked up): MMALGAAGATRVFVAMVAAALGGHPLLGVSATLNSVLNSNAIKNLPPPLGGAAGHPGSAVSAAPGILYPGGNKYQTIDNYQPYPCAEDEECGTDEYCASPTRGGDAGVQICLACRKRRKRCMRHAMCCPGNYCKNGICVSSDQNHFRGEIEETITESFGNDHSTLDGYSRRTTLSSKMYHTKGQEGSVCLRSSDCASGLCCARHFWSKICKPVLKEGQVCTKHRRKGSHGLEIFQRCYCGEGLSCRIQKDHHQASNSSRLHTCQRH
Assay: DKK1 binders on small-molecule microarrays, primary screen, biochemical, small-molecule microarray, 635 nm fluorescence scan (AID 1106);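 note: score merges emission near 667 nm with signal to noise over three replicate slides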
Conditions: DKK1 binding, higher = more signal
We use 0.06 as the dividing line for composite z-score: on or above the line is true (1), below is false (0).

compound	assignedClass
CC(C)(C)OC(=O)CC[C@@]12N=C(c3ccc(OCCCO)cc3)O[C@@H]1c1ccccc1N(Cc1ccccc1)C2=O	true (1)
CC(=O)OC(C/C=C\B1OC(C)(C)C(C)(C)O1)c1ccccc1 (centres undefined)	true (1)
O=C1O[C@@H](c2ccccc2)[C@@H](c2ccccc2)N2[C@@H](c3ccc(OCCO)cc3)[C@]3(C(=O)Nc4ccc(C#CC5(O)CCCCCC5)cc43)[C@@H](C(=O)NC[C@H](O)c3ccccc3)[C@H]12	true (1)
COc1ccc(/C=C/C(=O)c2cccc(OCC(=O)OC(C)(C)C)c2)cc1	false (0)
COc1ccc([Si](C)(C)[C@H]2[C@H](CC(=O)N(CCO)Cc3ccccc3)O[C@@]3(C(=O)N(Cc4ccc(N5CCC5=O)cc4)c4ccccc43)[C@@H]2C)cc1	true (1)
C=CCC1(CC=C)C[C@H]2CO[C@H](c3ccc(OC)cc3)N2C1=O	true (1)
CC(C)C[C@@H]1NC(=O)[C@@H]2C[C@H](C(=O)NCCCCCNC(=O)CS)[C@H](c3cccc(OCCO)c3)N2C1=O	true (1)
NCCCCCCNC(=O)[C@@H]1C[C@@H]2C(=O)N[C@@H](Cc3ccccc3)C(=O)N2[C@@H]1c1ccc(O)cc1	true (1)
CCOC(=O)C[C@H]1[C@H](OC(=O)c2ccc(-c3ccccc3)cc2)[C@@H](NC(=O)c2ccccc2)c2cc(OCCCO)ccc2N1C(=O)c1ccccc1	false (0)
COc1ccc(C#Cc2ccc3c(c2)[C@]2(C(=O)N3)[C@H](c3ccc(O)cc3)N3[C@H](c4ccccc4)[C@H](c4ccccc4)OC(=O)[C@H]3[C@@H]2C(N)=O)cc1	false (0)
C=C(COC)/C(=C/C[C@H](OC(C)=O)c1cccc(OCCO)c1)c1cc(C(=O)OC)ccc1OC	true (1)
C=CCN1C(=O)[C@@]2(O[C@@H](CCO)[C@H]([Si](C)(C)c3ccc(OC)cc3)[C@H]2C)c2cc(N(C=O)c3ccccc3)ccc21	true (1)
O=C(NO)[C@]1(Cc2ccccc2)N=C(c2ccc(OCCCO)cc2)O[C@@H]1c1ccccc1	false (0)
COCCOC(=O)N1C(=O)[C@@]2(c3cc(C#CCNC(N)=O)ccc31)[C@H](C(=O)NC[C@H](O)c1ccccc1)[C@H]1C(=O)O[C@H](c3ccccc3)[C@H](c3ccccc3)N1[C@@H]2c1ccc(O)cc1	false (0)

FYI, the data here is from PubChem BioAssay.
